# EXPERIMENTAL SYSTEM: Leucine aminopeptidase (Plasmodium falciparum (isolate 3D7))
# METHOD: P. falciparum M17LAP inhibitors, primary screen, biochemical, fluorogenic H-Leu-NHMec substrate, 1536-well (AID 1619);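 note: plate controls were full reaction with DMSO carrier for no effect and no enzyme background for full effect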
# EXPERIMENTAL PARAMETERS: recombinant M17LAP, H-Leu-NHMec fluorogenic kinetic assay; at 30 µM; hits give high values
The whole screen tested about 220,000 compounds, of which about 830 (0.38%) were called active. Not all results are given here. Potency and affinity values are given separately.
ASSAY METRIC: inhibition (%)
Give the value in % but do not write % after it.

Worked examples, 3 compounds total:
COMPOUND | EXPERIMENTAL SYSTEM | RESULT UNIT | inhibition
COc1ccc(NS(=O)(=O)c2cccc(C(=O)N/N=C/c3ccc4c(c3)OCCO4)c2)cc1 | Leucine aminopeptidase (Plasmodium falciparum (isolate 3D7)) | % | 6.63
CCOc1ccc(NC(=O)C2CC(=O)NC(N3CCc4ccccc43)=N2)cc1 (centres undefined) | Leucine aminopeptidase (Plasmodium falciparum (isolate 3D7)) | % | 13.4
CCC1CCCN1Cn1cnc2c([nH]c3ccc(C)cc32)c1=O (centres undefined) | Leucine aminopeptidase (Plasmodium falciparum (isolate 3D7)) | % | 0.76

GET /values?readout=inhibition&item= C=CCOc1ccc(/C=C2\C(=N)N3N=C(S(=O)(=O)CC)SC3=NC2=O)cc1OC 1.58

Need inhibition of COc1cc(/C=C2\SC(=N)N(c3ccc4c(c3)OCO4)C2=O)cc(OC)c1O , thanks. 1.69

###

# EXPERIMENTAL SYSTEM: Leucine aminopeptidase (Plasmodium falciparum (isolate 3D7)) (UniProt Q8IL11)
# Sequence (Q8IL11 whole entry, looked up): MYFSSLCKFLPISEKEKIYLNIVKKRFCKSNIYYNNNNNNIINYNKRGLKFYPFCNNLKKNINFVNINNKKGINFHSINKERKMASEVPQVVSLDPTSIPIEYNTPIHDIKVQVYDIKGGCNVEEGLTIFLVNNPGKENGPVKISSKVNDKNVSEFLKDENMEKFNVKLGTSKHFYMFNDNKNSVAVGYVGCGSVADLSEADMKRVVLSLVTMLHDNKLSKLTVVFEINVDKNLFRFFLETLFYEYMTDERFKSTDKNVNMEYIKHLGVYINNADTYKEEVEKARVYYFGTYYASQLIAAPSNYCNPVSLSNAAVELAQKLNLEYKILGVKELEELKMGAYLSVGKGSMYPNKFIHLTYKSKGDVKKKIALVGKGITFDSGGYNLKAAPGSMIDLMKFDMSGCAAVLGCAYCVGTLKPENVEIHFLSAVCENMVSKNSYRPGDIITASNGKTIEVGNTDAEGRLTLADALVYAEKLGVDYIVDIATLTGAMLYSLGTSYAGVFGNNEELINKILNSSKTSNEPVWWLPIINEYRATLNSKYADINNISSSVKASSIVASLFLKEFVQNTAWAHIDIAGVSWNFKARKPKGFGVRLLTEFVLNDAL
# METHOD: P. falciparum M17LAP inhibitors, primary screen, biochemical, fluorogenic H-Leu-NHMec substrate, 1536-well (AID 1619);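 note: plate controls were full reaction with DMSO carrier for no effect and no enzyme background for full effect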
# EXPERIMENTAL PARAMETERS: recombinant M17LAP, H-Leu-NHMec fluorogenic kinetic assay; at 30 µM; hits give high values
Screen size: about 220,000 compounds; about 830 (0.38%) were called active. The list is a sample of the results. Entries with a potency or affinity are not part of this list.
Consider the following compounds and their measured inhibition readings.
Give the value in % but do not write % after it.

Would you please look over these solved cases?
COMPOUND | inhibition / %
CC(=O)c1sc(NC(=O)CCOc2ccccc2)nc1C | -0.71
CC1=C/C(=N\NC(=O)c2ccc(O)cc2)CC1 | 12.2
C1CCCCCC2(CCCCC1)OCC(CN1CCOCC1)O2 (centres undefined) | 1.36

Record lookup: for Leucine aminopeptidase (Plasmodium falciparum (isolate 3D7)) (UniProt Q8IL11), what inhibition belongs to CCOC(=O)c1c(NC(=S)Nc2ccc(Cl)cc2)sc(C)c1C ? 12.6

Notebook entry, Leucine aminopeptidase (Plasmodium falciparum (isolate 3D7)) (UniProt Q8IL11) assay: inhibition of CC(/C=N/NC(=O)Cc1cccn1C)=C\c1ccccc1 = ? 32.7

What value of inhibition on Leucine aminopeptidase (Plasmodium falciparum (isolate 3D7)) (UniProt Q8IL11) does O=S(=O)(Cc1ccccc1)Nc1ccc(Br)cn1 have? 8.11

Lab note: need inhibition for COc1cc(OC)cc(C(=O)Nc2ccc([N+](=O)[O-])cn2)c1 on Leucine aminopeptidase (Plasmodium falciparum (isolate 3D7)) (UniProt Q8IL11), anyone have it? 1.24

Request body: readout inhibition, system Leucine aminopeptidase (Plasmodium falciparum (isolate 3D7)) (UniProt Q8IL11), query Cc1nc(C(=O)O)nn1-c1ccc([N+](=O)[O-])cc1 . Return the value. 0.22

Please state recorded inhibition (tested on Leucine aminopeptidase (Plasmodium falciparum (isolate 3D7)) (UniProt Q8IL11)) of CCOC(=O)C(CSCC(=O)c1ccc(Cl)cc1)NC(=O)OC(C)(C)C (centres undefined) 25.7

Item COc1ccc(C(=O)OCC(=O)Nc2nc3c(F)c(F)c(F)cc3s2)cc1OC with Leucine aminopeptidase (Plasmodium falciparum (isolate 3D7)) (UniProt Q8IL11) - inhibition? -4.12

# get_value(readout= inhibition, system= Leucine aminopeptidase (Plasmodium falciparum (isolate 3D7)) (UniProt Q8IL11)) for O=C(Cc1ccc(Cl)cc1)N/N=C/c1c(Cl)cccc1Cl -10.8

Item: CN1CCN(c2cc(=O)n(Cc3ccc(F)cc3)c(=O)[nH]2)CC1 Test system: Leucine aminopeptidase (Plasmodium falciparum (isolate 3D7)) (UniProt Q8IL11) Read-out: inhibition Value: ? -0.83

// lookup inhibition | system=Leucine aminopeptidase (Plasmodium falciparum (isolate 3D7)) (UniProt Q8IL11) | key= CC(/C=N/NC(=O)Cc1cccs1)=C\c1ccccc1 -13.2

Value wanted: inhibition (Leucine aminopeptidase (Plasmodium falciparum (isolate 3D7)) (UniProt Q8IL11)) of entry Cc1ccc2cc(CCNC(=O)c3ccco3)c(=O)[nH]c2c1C -13.9

Under Leucine aminopeptidase (Plasmodium falciparum (isolate 3D7)) (UniProt Q8IL11): inhibition value of NC(=O)c1c(NC(=S)Nc2ccccc2)sc2c1CCCC2 ? 16.9

# returns recorded inhibition (system: Leucine aminopeptidase (Plasmodium falciparum (isolate 3D7)) (UniProt Q8IL11)) for CC(=O)Nc1ccc(NC(=O)CSc2nnc(C)c(=O)[nH]2)cc1 5.47

Checklist item: inhibition tested on Leucine aminopeptidase (Plasmodium falciparum (isolate 3D7)) (UniProt Q8IL11), entry CCOC(=O)C1=C(Nc2ccc(C)cc2)CC(C)(O)C(C(=O)OCC)C1c1ccccc1 (centres undefined) , value? 0.02

Notebook entry, Leucine aminopeptidase (Plasmodium falciparum (isolate 3D7)) (UniProt Q8IL11) assay: inhibition of O=C(O)CC(Cc1ccc(Cl)cc1)C(=O)Nc1ccc([N+](=O)[O-])cc1 (centres undefined) = ? 44.7

Request - read-out inhibition | tested on Leucine aminopeptidase (Plasmodium falciparum (isolate 3D7)) (UniProt Q8IL11) | compound Cc1nnc(SCC(=O)Nc2ccc3c(c2)OCO3)[nH]c1=O 6.76

Reported inhibition for Leucine aminopeptidase (Plasmodium falciparum (isolate 3D7)) (UniProt Q8IL11), given O=c1cc(O)c2sc3nc(-c4ccccc4)cc(C(F)(F)F)c3c2[nH]1 ? -7

Please state recorded inhibition (tested on Leucine aminopeptidase (Plasmodium falciparum (isolate 3D7)) (UniProt Q8IL11)) of COc1cccc(CNC(=O)CCNS(=O)(=O)c2cccc3nsnc23)c1 -1.94
